- PROTOCOL SUMMARY: Stability in human simulated intestinal fluid at 1 mg/mL after 60 mins
- Type: ADME
- CONDITION NOTES: read-out: Stability
molecules and their reported remaining at 1 h, 1 mg/mL
Value expressed in %; do not type the unit.

Worked set:
molecule="COC(=O)CNP(=O)(OC[C@H]1O[C@@H](n2cnc3c(N(C)NS(C)(=O)=O)nc(N)nc32)[C@](C)(O)[C@@H]1O)Oc1ccc(Cl)cc1 (stereo partly drawn)" recorded_result=0
molecule="CC(NP(=O)(OC[C@H]1O[C@@H](n2cnc3c(N(C)NS(C)(=O)=O)ncnc32)[C@](C)(O)[C@@H]1O)Oc1ccccc1)C(=O)OCc1ccccc1 (stereo partly drawn)" recorded_result=0

*Q* What measured remaining at 1 h, 1 mg/mL goes with COC(=O)C(C)(C)NP(=O)(OC[C@H]1O[C@@H](n2cnc3c(N(C)NS(C)(=O)=O)nc(N)nc32)[C@](C)(O)[C@@H]1O)Oc1ccc(Cl)cc1 (stereo partly drawn) ?
*A* 100
